- Test system: IL-1β production by mouse peritoneal macrophages
- protocol-notes: IL-1β production by mouse peritoneal macrophages (ELISA)
- Assay type: cell-based
- test-parameters: dose 0.05 μM; IL-1β production, vs model group
Peptide text beside a SMILES is read from it. * marks the point of attachment. X74 = O=C1C=CC(=O)N1c1cccc(CCCCCCCCCCC(=O)*)c1; X84 = O=C1C=CC(=O)N1c1ccccc1CCCCCCCCCCCCC(=O)*; X72 = O=C1C=CC(=O)N1c1ccccc1CCCCCCCCCCC(=O)*; X60 = O=C1C=CC(=O)N1c1ccccc1CCCCCCCCCC(=O)*; X66 = O=C1C=CC(=O)N1c1cccc(CCCCCCCC(=O)*)c1; X54 = O=C1C=CC(=O)N1c1cccc(CCCCCCC(=O)*)c1; X55 = O=C1C=CC(=O)N1c1ccccc1CCCCCCCCC(=O)*; X71 = O=C1C=CC(=O)N1c1cccc(CCCCCC(=O)*)c1; X46 = O=C1C=CC(=O)N1c1cccc(CCCCC(=O)*)c1; X63 = O=C1C=CC(=O)N1c1ccccc1CCCCCCC(=O)*; X49 = O=C1C=CC(=O)N1c1ccccc1CCCCCC(=O)*; X75 = O=C1C=CC(=O)N1c1cccc(CC(=O)*)c1
// values below are reported Inhibition rate
Report only the number, with the unit % understood.

Consider the following illustrative entries.
C[C@H](NC(=O)CNC(=O)[C@H](CCCNC(=N)N)NC(=O)CCCCCCc1cccc(N2C(=O)C=CC2=O)c1)C(=O)N[C@@H](CC(=O)O)C(=O)N[C@@H](CCCNC(=N)N)C(=O)N[C@@H](C)C(=O)NCC(=O)NCC(=O)NCC(=O)NCC(=O)N[C@@H](CCCNC(=N)N)C(=O)NCC(=O)N[C@@H](CC(=O)O)C(=O)O [X30] (X54-RGADRAGGGGRGD-OH)
28.30
C[C@H](NC(=O)CNC(=O)[C@H](CCCNC(=N)N)NC(=O)CCCCCCCc1cccc(N2C(=O)C=CC2=O)c1)C(=O)N[C@@H](CC(=O)O)C(=O)N[C@@H](CCCNC(=N)N)C(=O)N[C@@H](C)C(=O)NCC(=O)NCC(=O)NCC(=O)NCC(=O)N[C@@H](CCCNC(=N)N)C(=O)NCC(=O)N[C@@H](CC(=O)O)C(=O)O [X31] (X66-RGADRAGGGGRGD-OH)
15.28
C[C@H](NC(=O)CNC(=O)[C@H](CCCNC(=N)N)NC(=O)CCCCc1cccc(N2C(=O)C=CC2=O)c1)C(=O)N[C@@H](CC(=O)O)C(=O)N[C@@H](CCCNC(=N)N)C(=O)N[C@@H](C)C(=O)NCC(=O)NCC(=O)NCC(=O)NCC(=O)N[C@@H](CCCNC(=N)N)C(=O)NCC(=O)N[C@@H](CC(=O)O)C(=O)O [X28] (X46-RGADRAGGGGRGD-OH)
15.78
C[C@H](NC(=O)CNC(=O)[C@H](CCCNC(=N)N)NC(=O)CCCCCCCCCCc1cccc(N2C(=O)C=CC2=O)c1)C(=O)N[C@@H](CC(=O)O)C(=O)N[C@@H](CCCNC(=N)N)C(=O)N[C@@H](C)C(=O)NCC(=O)NCC(=O)NCC(=O)NCC(=O)N[C@@H](CCCNC(=N)N)C(=O)NCC(=O)N[C@@H](CC(=O)O)C(=O)O [X34] (X74-RGADRAGGGGRGD-OH)
18.47
C[C@H](NC(=O)CNC(=O)[C@H](CCCNC(=N)N)NC(=O)CCCCCCCCc1ccccc1N1C(=O)C=CC1=O)C(=O)N[C@@H](CC(=O)O)C(=O)N[C@@H](CCCNC(=N)N)C(=O)N[C@@H](C)C(=O)NCC(=O)NCC(=O)NCC(=O)NCC(=O)N[C@@H](CCCNC(=N)N)C(=O)NCC(=O)N[C@@H](CC(=O)O)C(=O)O [X20] (X55-RGADRAGGGGRGD-OH)
17.90

Which Inhibition rate is listed for C[C@H](NC(=O)CNC(=O)[C@H](CCCNC(=N)N)NC(=O)Cc1cccc(N2C(=O)C=CC2=O)c1)C(=O)N[C@@H](CC(=O)O)C(=O)N[C@@H](CCCNC(=N)N)C(=O)N[C@@H](C)C(=O)NCC(=O)NCC(=O)NCC(=O)NCC(=O)N[C@@H](CCCNC(=N)N)C(=O)NCC(=O)N[C@@H](CC(=O)O)C(=O)O [X25] (X75-RGADRAGGGGRGD-OH) ?
20.57

Which Inhibition rate is listed for C[C@H](NC(=O)CNC(=O)[C@H](CCCNC(=N)N)NC(=O)CCCCCCCCCCc1ccccc1N1C(=O)C=CC1=O)C(=O)N[C@@H](CC(=O)O)C(=O)N[C@@H](CCCNC(=N)N)C(=O)N[C@@H](C)C(=O)NCC(=O)NCC(=O)NCC(=O)NCC(=O)N[C@@H](CCCNC(=N)N)C(=O)NCC(=O)N[C@@H](CC(=O)O)C(=O)O [X22] (X72-RGADRAGGGGRGD-OH) ?
29.53

Which Inhibition rate is listed for C[C@H](NC(=O)CNC(=O)[C@H](CCCNC(=N)N)NC(=O)CCCCCc1cccc(N2C(=O)C=CC2=O)c1)C(=O)N[C@@H](CC(=O)O)C(=O)N[C@@H](CCCNC(=N)N)C(=O)N[C@@H](C)C(=O)NCC(=O)NCC(=O)NCC(=O)NCC(=O)N[C@@H](CCCNC(=N)N)C(=O)NCC(=O)N[C@@H](CC(=O)O)C(=O)O [X29] (X71-RGADRAGGGGRGD-OH) ?
16.20

Which Inhibition rate is listed for C[C@H](NC(=O)CNC(=O)[C@H](CCCNC(=N)N)NC(=O)CCCCCc1ccccc1N1C(=O)C=CC1=O)C(=O)N[C@@H](CC(=O)O)C(=O)N[C@@H](CCCNC(=N)N)C(=O)N[C@@H](C)C(=O)NCC(=O)NCC(=O)NCC(=O)NCC(=O)N[C@@H](CCCNC(=N)N)C(=O)NCC(=O)N[C@@H](CC(=O)O)C(=O)O [X17] (X49-RGADRAGGGGRGD-OH) ?
16.02

Which Inhibition rate is listed for C[C@H](NC(=O)CNC(=O)[C@H](CCCNC(=N)N)NC(=O)CCCCCCCCCCCCc1ccccc1N1C(=O)C=CC1=O)C(=O)N[C@@H](CC(=O)O)C(=O)N[C@@H](CCCNC(=N)N)C(=O)N[C@@H](C)C(=O)NCC(=O)NCC(=O)NCC(=O)NCC(=O)N[C@@H](CCCNC(=N)N)C(=O)NCC(=O)N[C@@H](CC(=O)O)C(=O)O [X24] (X84-RGADRAGGGGRGD-OH) ?
29.88

Which Inhibition rate is listed for C[C@H](NC(=O)CNC(=O)[C@H](CCCNC(=N)N)NC(=O)CCCCCCc1ccccc1N1C(=O)C=CC1=O)C(=O)N[C@@H](CC(=O)O)C(=O)N[C@@H](CCCNC(=N)N)C(=O)N[C@@H](C)C(=O)NCC(=O)NCC(=O)NCC(=O)NCC(=O)N[C@@H](CCCNC(=N)N)C(=O)NCC(=O)N[C@@H](CC(=O)O)C(=O)O [X18] (X63-RGADRAGGGGRGD-OH) ?
23.36

Which Inhibition rate is listed for C[C@H](NC(=O)CNC(=O)[C@H](CCCNC(=N)N)NC(=O)CCCCCCCCCc1ccccc1N1C(=O)C=CC1=O)C(=O)N[C@@H](CC(=O)O)C(=O)N[C@@H](CCCNC(=N)N)C(=O)N[C@@H](C)C(=O)NCC(=O)NCC(=O)NCC(=O)NCC(=O)N[C@@H](CCCNC(=N)N)C(=O)NCC(=O)N[C@@H](CC(=O)O)C(=O)O [X21] (X60-RGADRAGGGGRGD-OH) ?
17.80
